Quick list: IC50 per entry.
Target: LRRK2 (G2019S) (Homo sapiens, UniProt Q5S007, G2019S)
Sequence (Q5S007 970-2527 G2019S limits assumed): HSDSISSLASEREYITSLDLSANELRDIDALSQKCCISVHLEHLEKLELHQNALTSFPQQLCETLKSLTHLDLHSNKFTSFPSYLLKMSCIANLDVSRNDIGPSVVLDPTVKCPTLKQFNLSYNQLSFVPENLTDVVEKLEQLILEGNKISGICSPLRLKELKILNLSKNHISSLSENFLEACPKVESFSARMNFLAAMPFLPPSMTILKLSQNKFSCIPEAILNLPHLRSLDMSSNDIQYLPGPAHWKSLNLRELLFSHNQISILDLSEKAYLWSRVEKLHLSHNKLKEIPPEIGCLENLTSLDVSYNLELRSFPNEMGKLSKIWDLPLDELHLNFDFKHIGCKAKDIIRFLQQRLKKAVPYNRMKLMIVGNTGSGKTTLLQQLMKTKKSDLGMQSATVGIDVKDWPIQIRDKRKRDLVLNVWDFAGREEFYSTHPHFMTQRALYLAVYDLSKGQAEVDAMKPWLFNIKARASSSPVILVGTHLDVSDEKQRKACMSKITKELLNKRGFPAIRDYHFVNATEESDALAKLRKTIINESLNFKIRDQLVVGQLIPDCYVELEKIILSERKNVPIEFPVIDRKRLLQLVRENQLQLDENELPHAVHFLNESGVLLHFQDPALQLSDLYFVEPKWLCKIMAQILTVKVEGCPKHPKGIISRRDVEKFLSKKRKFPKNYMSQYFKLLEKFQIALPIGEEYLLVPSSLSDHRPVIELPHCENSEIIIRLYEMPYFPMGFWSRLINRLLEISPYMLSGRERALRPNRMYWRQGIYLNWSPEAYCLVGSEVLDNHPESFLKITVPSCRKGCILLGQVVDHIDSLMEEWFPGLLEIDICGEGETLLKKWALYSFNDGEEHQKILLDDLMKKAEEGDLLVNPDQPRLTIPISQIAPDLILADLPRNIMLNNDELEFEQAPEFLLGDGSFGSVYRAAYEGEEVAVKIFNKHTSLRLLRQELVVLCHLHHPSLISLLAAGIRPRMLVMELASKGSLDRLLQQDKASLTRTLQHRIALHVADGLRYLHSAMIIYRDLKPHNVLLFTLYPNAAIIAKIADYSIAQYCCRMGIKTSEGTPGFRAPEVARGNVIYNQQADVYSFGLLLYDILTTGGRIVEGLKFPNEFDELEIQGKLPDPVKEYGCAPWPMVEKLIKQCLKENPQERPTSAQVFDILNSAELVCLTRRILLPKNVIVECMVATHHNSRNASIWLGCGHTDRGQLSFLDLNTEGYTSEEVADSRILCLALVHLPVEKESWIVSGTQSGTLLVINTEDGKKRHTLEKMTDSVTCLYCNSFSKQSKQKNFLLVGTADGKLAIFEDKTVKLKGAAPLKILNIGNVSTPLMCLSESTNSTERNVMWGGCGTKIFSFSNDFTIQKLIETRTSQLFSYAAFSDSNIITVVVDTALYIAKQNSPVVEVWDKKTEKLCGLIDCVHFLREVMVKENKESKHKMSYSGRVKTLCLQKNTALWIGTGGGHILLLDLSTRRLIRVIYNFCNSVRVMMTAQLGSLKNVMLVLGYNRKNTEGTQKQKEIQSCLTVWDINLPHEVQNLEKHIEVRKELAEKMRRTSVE
Assay: LRRK2 G2019S enzyme inhibition, ADP-Glo kinase assay
Assay type: biochemical
Design: purchased SignalChem L10-12GG
Settings: ATP 25 μM

Would you please look over these solved cases?
Sample N#Cc1c[nH]c2nc(Nc3ccc(C(=O)N4CC(CO)(CO)C4)c4c3OCCO4)nc(NC3CC3)c12 ; IC50 observed: 101 to 300 nM

Entry COCCNc1nc(Nc2ccc(C(=O)N3CCC(N4CCOCC4)CC3)c3c2OCC3)nc2[nH]cc(C(F)(F)F)c12 , IC50 reported as < 100 nM

In plain terms, COc1cc(P2(=O)CCN(C3CC3)CC2)ccc1Nc1nc(NCC2CCC2)c2c(C(F)(F)F)c[nH]c2n1 has a documented IC50 of < 100 nM

Next item in the queue.
Note to self: IC50 recorded for COc1cc(P2(=O)CCN(C3CC3)CC2)ccc1Nc1nc(N[C@H]2CCOC2)c2c(C(F)(F)F)c[nH]c2n1 was < 100 nM

* * *

Molecular target: CSNK1E (Homo sapiens)
Construct: purchased DiscoverX Corp. (ScanMAX Kinase analysis panel, service)
Sequence (P49674 whole entry): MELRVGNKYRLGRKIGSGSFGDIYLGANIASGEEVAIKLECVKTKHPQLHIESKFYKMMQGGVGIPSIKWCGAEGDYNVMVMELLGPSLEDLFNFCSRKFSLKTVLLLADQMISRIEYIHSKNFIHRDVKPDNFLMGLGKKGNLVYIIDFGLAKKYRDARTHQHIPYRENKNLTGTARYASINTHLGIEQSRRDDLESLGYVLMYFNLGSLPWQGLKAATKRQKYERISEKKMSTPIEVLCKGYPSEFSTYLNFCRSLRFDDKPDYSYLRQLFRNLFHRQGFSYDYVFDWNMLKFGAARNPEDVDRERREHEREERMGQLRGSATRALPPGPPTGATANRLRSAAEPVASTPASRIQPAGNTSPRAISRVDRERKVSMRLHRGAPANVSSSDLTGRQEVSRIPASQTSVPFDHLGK
Experiment: ScanMAX Kinase analysis panel, CSNK1E
Format: binding
Conditions: 1 μM in DMSO; <35% considered inhibitory; read-out: percent control (% control), CSNK1E
assay-metric: remaining binding at 1 µM (%)

// remaining binding at 1 µM value for O=C(c1ccc(Nc2nc(C3CC3)c3c(C(F)(F)F)c[nH]c3n2)c2c1OCCO2)N1CCC(N2CCOCC2)CC1 : 40

Item: CNc1nc(Nc2ccc(P3(=O)CCN(C4CC4)CC3)cc2OC)nc2[nH]cc(C(F)(F)F)c12 | remaining binding at 1 µM: 31

get_value(item= CNc1nc(Nc2ccc(S(=O)(=O)N3CCC(N4CCOCC4)CC3)cc2OC)nc2[nH]cc(C(F)(F)F)c12 [Example 157, 2,2,2-trifluoroacetate] , readout=remaining binding at 1 µM) returns 2.4

# remaining binding at 1 µM (molecule: C=CCNc1nc(Nc2ccc(S(=O)(=O)N3CCC(N4CCOCC4)CC3)cc2OC)nc2[nH]cc(C#N)c12 ) is 0.05

remaining binding at 1 µM reported for this molecule CCCNc1nc(Nc2ccc(S(=O)(=O)N3CCC(N4CCOCC4)CC3)cc2OC)nc2[nH]cc(C(F)(F)F)c12 : 12

(a) CCNc1nc(Nc2ccc(S(=O)(=O)N3CCC(N4CCOCC4)CC3)cc2OC)nc2[nH]cc(C(F)(F)F)c12 [Example 158, 2,2,2-trifluoroacetate]
(b) CNc1nc(Nc2ccc(C(=O)N3CCC(N4CCOCC4)CC3)c3c2OCCO3)nc2[nH]cc(C(F)(F)F)c12
Q: Larger number for remaining binding at 1 µM: a , or b ? Write the label of whichever entry you select.
A: b

* * *

Quick record: IC50, human GST-DYRK1A (Homo sapiens, UniProt Q13627).

Value sought: IC50, system human GST-DYRK1A (Homo sapiens, UniProt Q13627), item CCCCNc1nc(Nc2ccc(C(=O)N3CC(CO)(CO)C3)c3c2OCCO3)nc2[nH]cc(C#N)c12 [Example 341] . Result: 301 to 1000 nM

Per the reported human GST-DYRK1A (Homo sapiens, UniProt Q13627) data, O=C(c1ccc(Nc2nc(NCC3CCC3)c3c(C(F)(F)F)c[nH]c3n2)c2c1CCO2)N1CCOCC1 [Example 458] has IC50 of 301 to 1000 nM

Readout IC50 for O=C(c1ccc(Nc2nc(NC3CC3)c3cc[nH]c3n2)c2c1OCCO2)N1CCOCC1 [Example 56] , test system human GST-DYRK1A (Homo sapiens, UniProt Q13627), was 301 to 1000 nM

IC50 of CCNc1nc(Nc2ccc(C(=O)N3CCC(N4CCOCC4)CC3)c3c2OCC3)nc2[nH]cc(C(F)(F)F)c12 [Example 438] , assay on human GST-DYRK1A (Homo sapiens, UniProt Q13627), is < 100 nM

Record O=C(c1ccc(Nc2nc(NC3CC3)c3c(C(F)(F)F)c[nH]c3n2)c2c1CCO2)N1CCC(N2CCOCC2)CC1 [Example 434] / human GST-DYRK1A (Homo sapiens, UniProt Q13627), IC50 recorded as < 100 nM

For COc1cc(S(C)(=O)=O)ccc1Nc1nc(C2CC2)c2c(C#N)c[nH]c2n1 [Example 222] on human GST-DYRK1A (Homo sapiens, UniProt Q13627), measured IC50 was 301 to 1000 nM

Given the molecule COc1cc(P2(=O)CCN(C3COC3)CC2)ccc1Nc1nc(NC2CCC2)c2c(C#N)c[nH]c2n1 [Example 288] and test system human GST-DYRK1A (Homo sapiens, UniProt Q13627), the measured IC50 is < 100 nM

Measured on human GST-DYRK1A (Homo sapiens, UniProt Q13627), CC(C)Nc1nc(Nc2ccc(C(=O)N3CCC(N4CCOCC4)CC3)c3c2OCCO3)nc2[nH]cc(C#N)c12 [Example 140] has a documented IC50 of 301 to 1000 nM

// assay human GST-DYRK1A (Homo sapiens, UniProt Q13627), entry CNc1nc(Nc2ccc(C(=O)N3CCC(N4CCOCC4)CC3)c3c2OCCO3)nc2[nH]cc(C#N)c12 [Example 136] , IC50 value = 101 to 300 nM

Record COc1cc(P2(=O)CCN(C3CC3)CC2)ccc1Nc1nc(NCC(C)C)c2c(C#N)c[nH]c2n1 [Example 290] / human GST-DYRK1A (Homo sapiens, UniProt Q13627), IC50 recorded as 301 to 1000 nM

Others:
I looked up COc1cc(S(C)(=O)=O)ccc1Nc1nc(NCC2CCCC2)c2c(C(F)(F)F)c[nH]c2n1 [Example 206] and its IC50 for human GST-DYRK1A (Homo sapiens, UniProt Q13627) was 301 to 1000 nM

Reported human GST-DYRK1A (Homo sapiens, UniProt Q13627) IC50 for item COc1cc(P(C)(C)=O)ccc1Nc1nc(NC2CCCC2)c2c(C(F)(F)F)c[nH]c2n1 [Example 387] was 301 to 1000 nM

Measured on human GST-DYRK1A (Homo sapiens, UniProt Q13627), CCNc1nc(Nc2ccc(P(C)(C)=O)cc2OC)nc2[nH]cc(C(F)(F)F)c12 [Example 368] has a documented IC50 of 101 to 300 nM

* * *

Test system: TNF-α
Assay: Inhibition of LPS-induced TNF-α secretion of THP-1 monocytes (ELISA)
Assay type: cell-based, human
Settings: Homo sapiens, THP-1; compound 0.5 μM, LPS 500 ng/mL, 24 hours; read-out: THP-1/TNF-α (% inhib)
assay-metric: inhibition at 0.5 µM (%)
API: value field is a number in %; no unit string.

Use the examples below as a reference point.
Measured inhibition at 0.5 µM of O=C(c1ccc(Nc2nc(N[C@H]3CCOC3)c3c(C(F)(F)F)c[nH]c3n2)c2c1OCCO2)N1CCN(C2COC2)CC1 [Example 418] : 8.5

Reported inhibition at 0.5 µM ( CC(C)Nc1nc(Nc2ccc(C(=O)N3CCC(N4CCOCC4)CC3)c3c2OCC3)nc2[nH]cc(C(F)(F)F)c12 [Example 450] ) = 7.5

Noted for COc1cc(P2(=O)CCN(C3CCOCC3)CC2)ccc1Nc1nc(NC2CC2)c2c(C(F)(F)F)c[nH]c2n1 [Example 435] : its inhibition at 0.5 µM reads 6.6

Quick note, inhibition at 0.5 µM for O=C(c1ccc(Nc2nc(N[C@@H]3CCOC3)c3c(C(F)(F)F)c[nH]c3n2)c2c1OCCO2)N1CCN(C2COC2)CC1 [Example 416] landed at 8.1

Sure, the documented inhibition at 0.5 µM for COCCNc1nc(Nc2ccc(C(=O)N3CCC(N4CCOCC4)CC3)c3c2OCC3)nc2[nH]cc(C(F)(F)F)c12 [Example 443] is 10.8

Further cases:
compound O=C(c1ccc(Nc2nc(NCC3CC3)c3c(C(F)(F)F)c[nH]c3n2)c2c1CCO2)N1CCC(N2CCOCC2)CC1 [Example 461] , inhibition at 0.5 µM observed: 2.3

Record O=C(c1ccc(Nc2nc(NC3CCC3)c3c(C(F)(F)F)c[nH]c3n2)c2c1OCCO2)N1CCN(C2COC2)CC1 [Example 407] . Reported inhibition at 0.5 µM: 5.3

Reported inhibition at 0.5 µM of COc1cc(S(=O)(=O)N2CCC(N3C[C@H]4C[C@@H]3CO4)CC2)ccc1Nc1nc(C2CC2)c2c(C(F)(F)F)c[nH]c2n1 [Example 473] : 11.3

* * *

Test system: IL-6
Test: Inhibition of LPS-induced IL-6 secretion of THP-1 monocytes (ELISA)
Type: cell-based, human
Conditions: Homo sapiens, THP-1; compound 0.5 μM, LPS 500 ng/mL, 24 hours; read-out: THP1/IL6 (% inhib)
assay-metric: inhibition at 0.5 µM (%)
Just the number in %, nothing appended.

Reported inhibition at 0.5 µM for CCCNc1nc(Nc2ccc(C(=O)N3CCC(N4CCOCC4)CC3)c3c2OCC3)nc2[nH]cc(C#N)c12 was 32.9

compound O=C(c1ccc(Nc2nc(NCC3CC3)c3c(C(F)(F)F)c[nH]c3n2)c2c1CCO2)N1CCC(N2CCOCC2)CC1 , inhibition at 0.5 µM observed: 25.7

Kindly note the recorded inhibition at 0.5 µM for CCNc1nc(Nc2ccc(S(=O)(=O)N3CCC(N4CCOCC4)CC3)c3c2OCCO3)nc2[nH]cc(C(F)(F)F)c12 , which is 21

The compound CNc1nc(Nc2ccc(C(=O)N3CCN(C4COC4)CC3)c3c2OCCO3)nc2[nH]cc(C(F)(F)F)c12 showed inhibition at 0.5 µM equal to 32

inhibition at 0.5 µM measured on COCCNc1nc(Nc2ccc(C(=O)N3C[C@@H]4C[C@H]3CO4)c3c2OCCO3)nc2[nH]cc(C(F)(F)F)c12 = 17.8

inhibition at 0.5 µM for CNc1nc(Nc2ccc(C(=O)N3C[C@@H]4C[C@H]3CO4)c3c2OCCO3)nc2[nH]cc(C(F)(F)F)c12 is 19.5

Documented inhibition at 0.5 µM of CCNc1nc(Nc2ccc(C(=O)N3CCC(N4CCOCC4)CC3)c3c2OCC3)nc2[nH]cc(C(F)(F)F)c12 : 25.8
